tested on: A549; assay: Antiproliferative activity against human A549 cells assessed as cell growth inhibition after 72 hrs by sulforhodamine B assay; type: functional, cell-based; conditions: A549, 72 h
measurement_name: IC50

{"compound": "C=C(C)[C@@H]1CC[C@]2(C(=O)OC)CC[C@]3(C)[C@H](CC[C@@H]4[C@@]5(C)CC[C@@](O)(C(F)(F)F)C(C)(C)[C@@H]5CC[C@]43C)[C@@H]12", "recorded_result": "> 10 µM"}
{"compound": "C=C(C)[C@@H]1CC[C@]2(C(=O)OCc3ccc(Cl)cc3)CC[C@]3(C)[C@H](CC[C@@H]4[C@@]5(C)C[C@H](F)C(=O)C(C)(C)[C@@H]5CC[C@]43C)[C@@H]12", "recorded_result": "> 40 µM"}
{"compound": "C=C(C)[C@@H]1CC[C@]2(C(=O)OCc3ccc(Cl)cc3)CC[C@]3(C)[C@H](CC[C@@H]4[C@@]5(C)C[C@@H](F)C(=O)C(C)(C)[C@@H]5CC[C@]43C)[C@@H]12", "recorded_result": "> 40 µM"}
{"compound": "C=C(C)[C@@H]1CC[C@]2(C(=O)O)CC[C@]3(C)[C@H](CC[C@@H]4[C@@]5(C)CC[C@@](O)(C(F)(F)F)C(C)(C)[C@@H]5CC[C@]43C)[C@@H]12", "recorded_result": "5.4 µM"}
{"compound": "C=C(C)[C@@H]1CC[C@]2(C(=O)O)CC[C@]3(C)[C@H](CC[C@@H]4[C@@]5(C)C[C@H](F)[C@H](O)C(C)(C)[C@@H]5CC[C@]43C)[C@@H]12", "recorded_result": "4.5 µM"}
{"compound": "C=C(C)[C@@H]1CC[C@]2(C(=O)OC)CC[C@]3(C)[C@H](CC[C@@H]4[C@@]5(C)CC(F)[C@H](OC(=O)CC(C)(C)C(=O)O)C(C)(C)[C@@H]5CC[C@]43C)[C@@H]12 (some centres undefined)", "recorded_result": "> 10 µM"}
{"compound": "C=C(C)[C@@H]1CC[C@]2(C(=O)O)CC[C@]3(C)[C@H](CC[C@@H]4[C@@]5(C)CC[C@H](O)C(C)(C)[C@@H]5CC[C@]43C)[C@@H]12", "recorded_result": "29.5 µM"}
{"compound": "C=C(C)[C@@H]1CC[C@]2(C(=O)O)CC[C@]3(C)[C@H](CC[C@@H]4[C@@]5(C)CC(F)[C@H](O)C(C)(C)[C@@H]5CC[C@]43C)[C@@H]12 (mixture of isomers)", "recorded_result": "6.1 µM"}
{"compound": "C=C(C)[C@@H]1CC[C@]2(C(=O)OC)CC[C@]3(C)[C@H](CC[C@@H]4[C@@]5(C)CC(F)[C@H](O)C(C)(C)[C@@H]5CC[C@]43C)[C@@H]12 (mixture of isomers)", "recorded_result": "> 10 µM"}
{"compound": "C=C(C)[C@@H]1CC[C@]2(C(=O)OCc3ccc(Cl)cc3)CC[C@]3(C)[C@H](CC[C@@H]4[C@@]5(C)CC[C@@](O)(C(F)(F)F)C(C)(C)[C@@H]5CC[C@]43C)[C@@H]12", "recorded_result": "> 40 µM"}
{"compound": "C=C(C)[C@@H]1CC[C@]2(C(=O)OCc3ccc(Cl)cc3)CC[C@]3(C)[C@H](CC[C@@H]4[C@@]5(C)CCC(=O)C(C)(C)[C@@H]5CC[C@]43C)[C@@H]12", "recorded_result": "> 40 µM"}
{"compound": "C=C(C)[C@@H]1CC[C@]2(C(=O)O)CC[C@]3(C)[C@H](CC[C@@H]4[C@@]5(C)CC(F)[C@H](OC(=O)CC(C)(C)C(=O)O)C(C)(C)[C@@H]5CC[C@]43C)[C@@H]12 (some centres undefined)", "recorded_result": "> 10 µM"}
{"compound": "C=C(C)[C@@H]1CC[C@]2(C(=O)OC)CC[C@]3(C)[C@H](CC[C@@H]4[C@@]5(C)CC(F)C(=O)C(C)(C)[C@@H]5CC[C@]43C)[C@@H]12 (some centres undefined)", "recorded_result": "> 10 µM"}
{"compound": "C=C(C)[C@@H]1CC[C@]2(C(=O)O)CC[C@]3(C)[C@H](CC[C@@H]4[C@@]5(C)C[C@@H](F)[C@H](O)C(C)(C)[C@@H]5CC[C@]43C)[C@@H]12", "recorded_result": "5.6 µM"}
